Please go through the items and note down their koff.
Target: SARS-CoV-2 RBD (RBD-2) (SARS-CoV-2)
Experiment: SPR, Fc-captured IgG
Numbers only, in s⁻¹.

binder | quantity.kind | unit.label | recorded.measurement
L12.cP07E10 (antibody, V domains shown, human IgG1) VH: EVQLVESGGGLIQPGGSLRLSCAASGFTVSSNYMSWVRQAPGKGLEWVSVIYSGGSTYYADSVKGRFTISRDNSKNTLYLQMNSLRAEDTAVYYCARDPYGYSSIWDGQGGHWGQGTLVTVSS VL: DVVMTQSPSSLSASVGDRVTITCQASQDISNYLNWYQQKPGKAPKLLIYDASNFATGVPSRFSGTGSGTDFTFTISSLQPEDIATYYCQQYDNLPITFGQGTRLEIK | koff | s⁻¹ | 0.000364
L12.bP10G07 (antibody, V domains shown, human IgG1) VH: EVQLVQSGAEVKKPGASVKVSCKASGYIYSGYYMHWVRQAPGQGLEWMGWISPDSGGTNYAQRFQGRVTMTRDTSTTTAYMELSRLRSDDTAMYYCARGPRYSGTYFDYWGQGTLVTVSS VL: QTVVTQPASVSGSPGQSITISCTGTSSDVGGYNYVSWYQQHPDKAPKLIIYDVSNRPSGVSNRFSGSKSGNTASLTISGLQAEDEAAYYCSSYTSSSTQVFGGGTKLTVL | koff | s⁻¹ | 0.0961
L12.bP11A11 (antibody, V domains shown, human IgG1) VH: QVQLVQSGAEVKKPGASVKVSCKASGYTFTGYYMHWVRQAPGQGLEWMGWISPNSGGTNYAQKFQGWVTMTRDTSVSTAYMELSRLRFDDTAVYYCATESWVYGSGSYSSGAFDIWGQGTMVTVSS VL: QSVLTQPPSASGSPGQSVTISCTGTSSDVGGYDYVSWYQQHPGKAPKLMIYEVSKRPSGVPDRFSGSKSGNTASLTVPGLQAEDEADYYCTSYAGSNNFVFGGGTKLIVL | koff | s⁻¹ | 0.066

Item under review: L12.bP12H09 (antibody, V domains shown, human IgG1) VH: QVQLVQSGAEVKKPGASVKVSCKASGYIFSGYYTHWVRQAPGQGLEWMGWISPDSGGTNYAQKFQGRVTMTRDTSITTAYVELSGLRSDDTAVYYCARGPRYSGTYFDYWGQGTLVTVSS VL: QSALTQPASVSGSPGQSITISCTGTSSDVGGYNHVSWYQQHPGKAPKLMIYDVSNRPSGVSNRFSGSKSGNTASLTISGLQAEDEADYYCSSYTSSSAQLFGGGTKLTVL . Reported koff?
0.12

Sourced from patent US20230357364A1
